Overview of reported T/C across a group of compounds:
Tested on: P388 leukemia ip, CD2F1 mice, survival T/C
procedure summary: NCI In Vivo Anticancer Drug Screen. Data for tumor model P388 Leukemia (intraperitoneal) in CD2F1 (CDF1) mice
condition set: endpoint: median survival time; dose: 120.0 mg/kg/injection; schedule: Q01DX005 (ip); vehicle: saline with Tween-80; higher = longer survival
Toxic doses and inconclusive results are not listed.
reported metric: T/C

# compound, val
measured = [
    ("O=C(Nc1ccc(Cl)cc1)Nc1nnc(-c2ccccc2Br)o1", "94 % of control"),
    ("COc1ccc(/C=C/Cc2cc3c(cc2O)OCO3)cc1", "101 % of control"),
    ("COc1cc(C(CC(C)=O)c2cc3c(cc2OC(C)=O)OCO3)cc(OC)c1OC (stereo not given) (tested in a mixture with another compound)", "118 % of control"),
    ("C=C1NC(=O)C(N)=C1C(C)=O", "104 % of control"),
    ("O=C(/N=C1\\N=Nc2nc(C(C(=O)c3cccs3)c3nc4n(c3O)/C(=N/C(=O)Nc3ccc(Cl)cc3)N=N4)c(O)n21)Nc1ccc(Cl)cc1 (stereo not given)", "95 % of control"),
]

* * *

Tested on: P388 leukemia ip, CD2F1 mice, survival T/C
procedure summary: NCI In Vivo Anticancer Drug Screen. Data for tumor model P388 Leukemia (intraperitoneal) in CD2F1 (CDF1) mice
condition set: endpoint: median survival time; dose: 6.25 mg/kg/injection; schedule: Q01DX009 (ip); vehicle: saline with Tween-80; higher = longer survival
Toxic doses and inconclusive results are not listed.
Overview of reported T/C across a group of compounds:

# compound, T/C
measured = [
    ("O=C(O)CN(CC(=O)O)Cc1cc2c(c(O)c1O)C(=O)c1ccccc1C2=O", "97 % of control"),
    ("O=[N+]([O-])CC1CCCCC1O (stereo unspecified)", "100 % of control"),
    ("COC1=C(N)C(=O)c2ncccc2C1=O", "95 % of control"),
    ("O=C1C(CC=C(Cl)Cl)=C(OC2OC(CO)C(O)C(O)C2O)C(=O)c2ccccc21 (stereo unspecified)", "109 % of control"),
    ("CCCCCCCCCC(C)CC(=O)NCCCN(C)CCCCN(C)C (stereo unspecified) (tested in a mixture with another compound)", "100 % of control"),
    ("O=c1c2ccccc2[nH]c2c([N+](=O)[O-])ccc(Oc3ccc(CCc4ccc(Oc5ccc([N+](=O)[O-])c6[nH]c7ccccc7c(=O)c56)cc4)cc3)c12", "101 % of control"),
]

* * *

Overview of reported T/C across a group of molecules:
Tested on: P388 leukemia ip, CD2F1 mice, survival T/C
procedure summary: NCI In Vivo Anticancer Drug Screen. Data for tumor model P388 Leukemia (intraperitoneal) in CD2F1 (CDF1) mice
condition set: endpoint: median survival time; dose: 200.0 mg/kg/injection; schedule: Q01DX009 (ip); vehicle: Klucel (hydroxypropylcellulose) (HPC); higher = longer survival
Inconclusive results and toxic doses are left out.

# line notation, T/C
measured = [
    ("NCC(=O)c1ccc2oc3ccccc3c2c1", "118 % of control"),
    ("NC(=O)N/N=C/c1cccc(O)c1O", "116 % of control"),
    ("ClCCN(CCCCCCN(CCCl)c1ccccc1)c1ccccc1", "108 % of control"),
    ("COc1ccc(-c2c(S(C)(=O)=O)nsc2S(C)(=O)=O)cc1", "97 % of control"),
    ("O=[N+]([O-])c1ccc(S(=O)(=O)NCCSSCCNS(=O)(=O)c2ccc([N+](=O)[O-])cc2)cc1", "90 % of control"),
    ("CC1(C)CC(=O)C=C(NCCCCCCNC2=CC(=O)CC(C)(C)C2)C1", "95 % of control"),
]

* * *

Overview of reported T/C across a group of compounds:
System: P388 leukemia ip, CD2F1 mice, survival T/C
procedure summary: NCI In Vivo Anticancer Drug Screen. Data for tumor model P388 Leukemia (intraperitoneal) in CD2F1 (CDF1) mice
condition set: endpoint: median survival time; dose: 50.0 mg/kg/injection; schedule: Q01DX005 (ip); vehicle: saline with Tween-80; higher = longer survival
Inconclusive results and toxic doses are left out.
reported metric: T/C

# compound, reported metric, val
data = [
    ("CCCCNC(C)(C)C(SSSC(c1cccs1)C(C)(C)NCCCC)c1cccs1 (configuration not stated)", "T/C", "121 % of control"),
    ("NS(=O)(=O)c1ccc(Nc2c3ccc(Cl)cc3nc3ncccc23)cc1", "T/C", "108 % of control"),
    ("CC1(C)c2ccccc2-c2nc3ccccc3cc2C1(Br)Br", "T/C", "105 % of control"),
    ("COc1ccc(-c2coc3c4c(ccc3c2=O)OC(C)(C)C=C4)cc1", "T/C", "101 % of control"),
    ("CC(=O)c1c(OCC(O)CN(CCO)CCO)ccc2c(C)cc(=O)oc12 (configuration not stated)", "T/C", "107 % of control"),
    ("c1csc(C2=NCCC2)c1", "T/C", "100 % of control"),
    ("CN1C(=O)C(C)(C)CN(c2ccccc2)C1=S", "T/C", "100 % of control"),
    ("CN1C(C)(C)CC2=C(c3ccccc3)c3ccccc3C2C1(C)C (configuration not stated)", "T/C", "106 % of control"),
    ("Nc1cc(N2C(=O)c3ccccc3C2=O)ccc1Cl", "T/C", "109 % of control"),
    ("Cc1ccc(C(=O)NC2c3ccccc3Oc3ccccc32)cc1", "T/C", "90 % of control"),
    ("O=c1cc(-c2ccccc2)c(N=Nc2ccccc2)c(S)n1-c1ccccc1", "T/C", "87 % of control"),
    ("COc1ccccc1C(C)c1cc2c(cc1OC)OCO2 (configuration not stated)", "T/C", "100 % of control"),
]

* * *

System: P388 leukemia ip, CD2F1 mice, survival T/C
procedure summary: NCI In Vivo Anticancer Drug Screen. Data for tumor model P388 Leukemia (intraperitoneal) in CD2F1 (CDF1) mice
condition set: endpoint: median survival time; dose: 100.0 mg/kg/injection; schedule: Q01DX005 (ip); vehicle: Klucel (hydroxypropylcellulose) (HPC); higher = longer survival
Inconclusive results and toxic doses are left out.
reported metric: T/C

# compound, test target, reported metric, val
rows = [
    ("COc1cc(CCN=Cc2cccnc2)c([N+](=O)[O-])cc1OC", "P388 leukemia ip, CD2F1 mice, survival T/C", "T/C", "100 % of control"),
    ("CCCCCCCC(=O)Nc1cc2c3c(c1)CCC(=O)N3CCC2", "P388 leukemia ip, CD2F1 mice, survival T/C", "T/C", "100 % of control"),
    ("COc1ccc(Cc2c3cc(OC)c(OC)cc3cc[n+]2CC(=O)c2ccc(Cl)cc2)cc1OC", "P388 leukemia ip, CD2F1 mice, survival T/C", "T/C", "111 % of control"),
    ("Nc1nc(C2CCCC2)c(Br)c(=O)[nH]1", "P388 leukemia ip, CD2F1 mice, survival T/C", "T/C", "103 % of control"),
    ("NC(CSCc1ccccc1)C(=O)Nc1ccc([N+](=O)[O-])cc1 (stereo unspecified)", "P388 leukemia ip, CD2F1 mice, survival T/C", "T/C", "101 % of control"),
    ("C[Si]1(C)N(c2ccccc2)[Si](C)(c2ccccc2)N1c1ccccc1", "P388 leukemia ip, CD2F1 mice, survival T/C", "T/C", "111 % of control"),
    ("CC1=C(C)C(N2CCOCC2)CS(=O)(=O)O1 (stereo unspecified)", "P388 leukemia ip, CD2F1 mice, survival T/C", "T/C", "101 % of control"),
    ("C[O+]=c1cccc2sc(-c3ccccc3)ccc1-2", "P388 leukemia ip, CD2F1 mice, survival T/C", "T/C", "108 % of control"),
    ("O=C1[O][Sn]2([Cl])[NH]C1C[S]2 (stereo unspecified)", "P388 leukemia ip, CD2F1 mice, survival T/C", "T/C", "102 % of control"),
    ("CCCNC(=O)CCC(NS(=O)(=O)c1ccc(NC(C)=O)cc1)C(=O)O (stereo unspecified)", "P388 leukemia ip, CD2F1 mice, survival T/C", "T/C", "98 % of control"),
    ("CC(C)CC(NC(=O)OCC1c2ccccc2-c2ccccc21)C(=O)O (stereo unspecified)", "P388 leukemia ip, CD2F1 mice, survival T/C", "T/C", "100 % of control"),
]

* * *

Test system: P388 leukemia ip, CD2F1 mice, survival T/C
procedure summary: NCI In Vivo Anticancer Drug Screen. Data for tumor model P388 Leukemia (intraperitoneal) in CD2F1 (CDF1) mice
condition set: endpoint: median survival time; dose: 25.0 mg/kg/injection; schedule: Q01DX009 (ip); vehicle: saline
Toxic doses and inconclusive results are not listed. The calls were made as follows: active = survival T/C of 150% or more; inactive = T/C below 125% in these data.
Possible outcomes: TRUE for active, FALSE for inactive

# compound, assigned label
records = [
    ("Cc1cnc(N)c(S(=O)(=O)O)c1", "FALSE"),
    ("N=[N+]=CC(=O)OCC(N)C(=O)O (stereo not drawn)", "TRUE"),
    ("Oc1ccc(C(O)C2CCCCN2)cc1O (stereo not drawn)", "FALSE"),
    ("CNS(=O)(=O)O", "FALSE"),
    ("COC(C(N)=O)c1ccccc1 (stereo not drawn)", "FALSE"),
    ("Nc1nc(N)c2nnn(C3OC(CO)C(O)C3O)c2n1 (stereo not drawn)", "FALSE"),
    ("CCc1cc(-n2c3c(CC)c(=O)c(CC)cc-3nc3ccccc32)cc(CC)c1O", "FALSE"),
    ("CCC[CH2][Sn]([CH2]CCC)([CH2]CCC)[CH2]CCNCCCN(C)C", "FALSE"),
]

Origin of the recorded values: PubChem BioAssay AID330
